- study-target: KAT-7 (Homo sapiens (Human))
- Sequence (O95251 other isoform, or with tags, fused parts or gaps): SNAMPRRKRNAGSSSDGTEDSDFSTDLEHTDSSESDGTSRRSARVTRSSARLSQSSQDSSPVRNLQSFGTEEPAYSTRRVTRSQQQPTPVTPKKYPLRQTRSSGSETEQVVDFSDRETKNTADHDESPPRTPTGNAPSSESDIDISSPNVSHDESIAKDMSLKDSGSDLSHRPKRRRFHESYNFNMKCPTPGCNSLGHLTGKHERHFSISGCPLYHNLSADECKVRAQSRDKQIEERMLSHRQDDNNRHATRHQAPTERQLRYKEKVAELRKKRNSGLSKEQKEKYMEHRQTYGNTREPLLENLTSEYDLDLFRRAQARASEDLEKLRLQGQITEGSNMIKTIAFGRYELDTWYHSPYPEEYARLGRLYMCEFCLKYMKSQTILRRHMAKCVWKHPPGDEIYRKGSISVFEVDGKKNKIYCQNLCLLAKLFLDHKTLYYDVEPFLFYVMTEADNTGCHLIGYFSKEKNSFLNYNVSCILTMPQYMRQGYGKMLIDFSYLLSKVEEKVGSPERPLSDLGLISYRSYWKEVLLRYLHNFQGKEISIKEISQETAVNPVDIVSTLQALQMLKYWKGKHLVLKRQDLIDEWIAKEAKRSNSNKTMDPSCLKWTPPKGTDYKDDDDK
- protocol-summary: KAT-7 biochemical inhibition assay (SAMDI mass spectrometry)
pIC50: −log10 of the molar value.
# pIC50 per record follows

Solved cases (5 shown):
Cn1cnc(-c2cc(Cl)c(F)c(C(=O)NNS(=O)(=O)Cc3ccnn3C)c2)c1 [Compound I-480] : > 5.00
Cn1cnc(-c2cc(Cl)c(F)c(C(=O)NNS(=O)(=O)CC3CCCC(NC(=O)c4cccnc4)C3)c2)c1 (stereo not shown) [Compound I-236] : > 5.00
Cn1cnc(-c2cc(Cl)c(F)c(C(=O)NNS(=O)(=O)CC3CCCN(S(C)(=O)=O)C3)c2)c1 (stereo not shown) [Compound I-53] : > 5.00
Cn1cnc(-c2cc(Cl)c(F)c(C(=O)NNS(=O)(=O)CC3CCCC(NC(=O)C4CCC4)C3)c2)c1 (stereo not shown) [Compound I-218] : > 5.00
Cn1cnc(-c2cc(Cl)c(F)c(C(=O)NNS(=O)(=O)Cc3nn(C)cc3Cl)c2)c1 [Compound I-474] : > 5.00

Consider the molecule Cn1cnc(-c2cc(Cl)c(F)c(C(=O)NNS(=O)(=O)CC3CCCC(N)C3)c2)c1 (stereo not shown) [Compound I-103] and give its measured pIC50. > 5.00

Another molecule: Cn1cnc(-c2cc(Cl)c(F)c(C(=O)NNS(=O)(=O)c3c(F)cccc3F)c2)c1 [Compound I-378] > 5.00

###

# IC50 per record follows
- study-target: KAT-5 (Homo sapiens (Human), UniProt Q92993)
- Sequence (Q92993 other isoform, or with tags, fused parts or gaps): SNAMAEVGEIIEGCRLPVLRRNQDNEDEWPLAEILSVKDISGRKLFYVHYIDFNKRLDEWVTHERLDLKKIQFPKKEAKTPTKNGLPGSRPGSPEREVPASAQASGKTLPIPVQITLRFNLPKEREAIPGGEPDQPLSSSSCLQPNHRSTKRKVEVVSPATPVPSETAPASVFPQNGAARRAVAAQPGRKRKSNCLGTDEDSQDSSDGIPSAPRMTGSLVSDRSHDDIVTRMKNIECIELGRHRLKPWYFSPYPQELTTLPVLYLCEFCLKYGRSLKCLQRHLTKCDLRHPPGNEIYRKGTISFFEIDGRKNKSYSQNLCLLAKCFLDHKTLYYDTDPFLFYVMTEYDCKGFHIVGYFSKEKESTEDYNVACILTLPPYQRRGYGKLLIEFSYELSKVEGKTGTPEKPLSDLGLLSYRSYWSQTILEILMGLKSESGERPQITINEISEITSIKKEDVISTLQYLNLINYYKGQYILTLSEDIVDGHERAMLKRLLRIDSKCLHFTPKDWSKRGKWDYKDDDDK
- protocol-summary: KAT-5 biochemical inhibition assay (SAMDI mass spectrometry)

Solved cases (5 shown):
CNC(=O)N1CC[C@@H](CS(=O)(=O)NNC(=O)c2cc(-c3cn(C)cn3)cc(Cl)c2F)C1 [Compound I-209] : < 10 µM
Cn1cnc(-c2cc(Cl)c(F)c(C(=O)NNS(=O)(=O)Cc3c(Cl)cnn3C)c2)c1 [Compound I-477] : < 10 µM
Cc1cc(-c2cn(C)cn2)cc(C(=O)NNS(=O)(=O)CC2CCCN(C(=O)OC(C)(C)C)C2)c1F (stereo not drawn) [Compound I-132] : < 10 µM
Cn1cnc(-c2cc(Cl)c(F)c(C(=O)NNS(=O)(=O)CC3CCC(NC(=O)N4CCC4)C3)c2)c1 (stereo not drawn) [Compound I-341] : < 10 µM
Cn1cnc(-c2cc(Cl)c(F)c(C(=O)NNS(=O)(=O)C[C@H]3CC[C@@H](NC(=O)C4CCC4)CC3)c2)c1 [Compound I-246] : < 10 µM

Consider the compound Cn1cnc(-c2cc(Cl)c(F)c(C(=O)NNS(=O)(=O)C[C@H]3CC[C@H](N(C)CC(F)(F)F)CC3)c2)c1 [Compound I-471] and give its measured IC50. < 10 µM

Another compound: Cn1cnc(-c2cc(Cl)c(F)c(C(=O)NNS(=O)(=O)CC3CCCCC3O)c2)c1 (stereo not drawn) [Compound I-384] < 10 µM

Another compound: CN(CCOc1ccc(S(=O)(=O)NNC(=O)c2cc(-c3cn(C)cn3)cc(Cl)c2F)cc1)C(=O)OC(C)(C)C [Compound I-394] 10 to 50 µM

Another compound: Cc1ncc(-c2cc(Cl)c(F)c(C(=O)NNS(=O)(=O)C3CCOCC3)c2)n1C [Compound I-54] 50 to 100 µM

Another compound: CNC(=O)Cn1nc(-c2cc(Cl)c(F)c(C(=O)NNS(=O)(=O)CC3CCCCC3)c2)cc1C [Compound I-311] < 10 µM

Another compound: Cn1cnc(-c2cc(Cl)c(F)c(C(=O)NNS(=O)(=O)CC3CN(S(=O)(=O)C4CC4)C3)c2)c1 [Compound I-185] 10 to 50 µM

Another compound: CCS(=O)(=O)N1CCCC(CS(=O)(=O)NNC(=O)c2cc(-c3cn(C)cn3)cc(Cl)c2F)C1 (stereo not drawn) [Compound I-82] < 10 µM

Another compound: Cc1ncc(-c2cc(Cl)c(F)c(C(=O)NNS(=O)(=O)CC3CCOCC3)c2)[nH]1 [Compound I-81] < 10 µM

Another compound: Cn1cnc(-c2cc(Cl)c(F)c(C(=O)NNS(=O)(=O)c3cccnc3OCc3ccccc3)c2)c1 [Compound I-374] < 10 µM

Another compound: CNc1ccc(S(=O)(=O)NNC(=O)c2cc(-c3cn(C)cn3)cc(Cl)c2F)cc1 [Compound I-382] 10 to 50 µM
